- test_system: α4β7 integrin (Homo sapiens (Human), UniProt P13612+P26010)
- Sequence (P13612 34-1032): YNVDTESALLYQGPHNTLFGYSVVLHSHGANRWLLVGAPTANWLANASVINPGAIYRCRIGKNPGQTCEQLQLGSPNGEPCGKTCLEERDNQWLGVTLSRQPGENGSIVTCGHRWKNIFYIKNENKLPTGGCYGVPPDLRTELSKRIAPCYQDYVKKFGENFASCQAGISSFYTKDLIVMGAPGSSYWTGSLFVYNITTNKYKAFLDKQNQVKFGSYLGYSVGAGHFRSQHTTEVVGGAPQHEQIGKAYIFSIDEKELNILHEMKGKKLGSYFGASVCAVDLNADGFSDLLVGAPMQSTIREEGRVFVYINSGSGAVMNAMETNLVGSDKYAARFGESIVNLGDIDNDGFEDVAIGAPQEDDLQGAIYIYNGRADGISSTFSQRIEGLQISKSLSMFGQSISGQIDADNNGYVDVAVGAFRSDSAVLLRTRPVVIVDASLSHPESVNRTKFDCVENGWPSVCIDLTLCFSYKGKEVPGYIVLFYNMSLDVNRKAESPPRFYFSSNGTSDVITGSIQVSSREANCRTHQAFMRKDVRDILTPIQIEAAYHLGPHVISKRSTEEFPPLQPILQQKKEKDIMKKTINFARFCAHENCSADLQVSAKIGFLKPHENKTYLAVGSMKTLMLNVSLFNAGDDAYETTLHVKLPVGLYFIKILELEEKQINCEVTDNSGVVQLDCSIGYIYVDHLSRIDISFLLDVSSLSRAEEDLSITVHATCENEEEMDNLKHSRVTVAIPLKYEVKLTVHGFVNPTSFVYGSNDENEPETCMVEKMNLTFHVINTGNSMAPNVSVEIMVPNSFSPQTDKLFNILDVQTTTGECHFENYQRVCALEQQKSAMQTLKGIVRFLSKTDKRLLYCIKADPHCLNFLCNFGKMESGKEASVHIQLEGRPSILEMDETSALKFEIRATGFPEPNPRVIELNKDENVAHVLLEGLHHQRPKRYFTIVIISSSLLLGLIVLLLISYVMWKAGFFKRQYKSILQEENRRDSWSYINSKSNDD
- Sequence (P26010 20-798): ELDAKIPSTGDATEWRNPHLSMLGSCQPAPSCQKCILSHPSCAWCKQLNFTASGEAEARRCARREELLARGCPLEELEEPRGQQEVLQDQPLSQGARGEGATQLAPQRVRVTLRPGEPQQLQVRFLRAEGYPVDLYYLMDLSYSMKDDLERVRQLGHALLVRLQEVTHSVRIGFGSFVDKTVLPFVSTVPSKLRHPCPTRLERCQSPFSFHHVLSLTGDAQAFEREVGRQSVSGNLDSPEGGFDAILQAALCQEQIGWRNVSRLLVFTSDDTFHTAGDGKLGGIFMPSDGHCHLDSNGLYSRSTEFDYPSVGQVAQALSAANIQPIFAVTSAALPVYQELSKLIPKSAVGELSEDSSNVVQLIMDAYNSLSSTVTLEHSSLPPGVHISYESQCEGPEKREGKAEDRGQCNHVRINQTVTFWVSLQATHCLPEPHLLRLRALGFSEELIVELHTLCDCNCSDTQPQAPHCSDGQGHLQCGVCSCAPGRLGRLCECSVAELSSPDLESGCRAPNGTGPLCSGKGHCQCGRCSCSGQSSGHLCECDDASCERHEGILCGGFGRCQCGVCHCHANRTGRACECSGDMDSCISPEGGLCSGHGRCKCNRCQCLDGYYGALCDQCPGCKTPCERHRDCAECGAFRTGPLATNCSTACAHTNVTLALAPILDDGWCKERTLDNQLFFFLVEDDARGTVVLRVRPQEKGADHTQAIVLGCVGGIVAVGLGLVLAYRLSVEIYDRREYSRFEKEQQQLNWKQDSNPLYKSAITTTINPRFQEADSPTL
- assay_comment: Integrin Adhesion Assay: Protocol 4 (MAdCAM-coated plate, RPMI-8866 cells with stable LOF mutation of the ITGB1 gene)
- Format: cell-based
- experimental_context: Protocol 4; RPMI-8866 cells with LOF mutation of ITGB1, MAdCAM; read-out: Mean IC50 α4β7 KO
pIC50: −log10 of the molar value.
Entries and their pIC50

molecule="O=C(O)[C@H](Cc1cccc2c(-c3ncc(CN4CCC[C@H](F)C4)cc3C3CC3)cccc12)NC(=O)C1(C(F)(F)F)CCN(CC(F)(F)F)CC1 [Compound 950]" result="> 8.00"

What measured pIC50 goes with CC1(C)CCCN(Cc2cnc(-c3cccc4c(C[C@H](NC(=O)C5(C(F)(F)F)CCN(CC(F)(F)F)CC5)C(=O)O)cccc34)c3ccccc23)C1 [Compound 873] ?
7.00 to 8.00

Which pIC50 value belongs to COc1cccc(CCN2CCC[C@@H](F)C2)c1-c1cccc2c(C[C@H](NC(=O)C3(C(F)(F)F)CCN(CC(F)F)CC3)C(=O)O)cccc12 [Compound 970] ?
> 8.00

Fill in the blank: the reported pIC50 of COc1ccc2c(c1-c1cccc3c(C[C@H](NC(=O)c4c(C)cccc4F)C(=O)O)cccc13)CN(CC(F)F)CC2 [Compound 995] is ____.
7.00 to 8.00

Can you share its pIC50? I mean this molecule: Cc1cc(CN2CCC(C)(C)CC2)cnc1-c1cccc2c(C[C@H](NC(=O)C3(C(F)(F)F)CCN(C4COC4)CC3)C(=O)O)cccc12 [Compound 945]
> 8.00

Look up pIC50: COc1ccc(CN2CCC(c3ccccc3)CC2)c(OC)c1-c1cccc2c(C[C@H](NC(=O)C3(C(F)(F)F)CCN(CC(F)(F)F)CC3)C(=O)O)cccc12 [Compound 807]
> 8.00

###

- test_system: α4β1 integrin (Homo sapiens (Human), UniProt P05556+P13612)
- Sequence (P05556 21-798, one chain of several): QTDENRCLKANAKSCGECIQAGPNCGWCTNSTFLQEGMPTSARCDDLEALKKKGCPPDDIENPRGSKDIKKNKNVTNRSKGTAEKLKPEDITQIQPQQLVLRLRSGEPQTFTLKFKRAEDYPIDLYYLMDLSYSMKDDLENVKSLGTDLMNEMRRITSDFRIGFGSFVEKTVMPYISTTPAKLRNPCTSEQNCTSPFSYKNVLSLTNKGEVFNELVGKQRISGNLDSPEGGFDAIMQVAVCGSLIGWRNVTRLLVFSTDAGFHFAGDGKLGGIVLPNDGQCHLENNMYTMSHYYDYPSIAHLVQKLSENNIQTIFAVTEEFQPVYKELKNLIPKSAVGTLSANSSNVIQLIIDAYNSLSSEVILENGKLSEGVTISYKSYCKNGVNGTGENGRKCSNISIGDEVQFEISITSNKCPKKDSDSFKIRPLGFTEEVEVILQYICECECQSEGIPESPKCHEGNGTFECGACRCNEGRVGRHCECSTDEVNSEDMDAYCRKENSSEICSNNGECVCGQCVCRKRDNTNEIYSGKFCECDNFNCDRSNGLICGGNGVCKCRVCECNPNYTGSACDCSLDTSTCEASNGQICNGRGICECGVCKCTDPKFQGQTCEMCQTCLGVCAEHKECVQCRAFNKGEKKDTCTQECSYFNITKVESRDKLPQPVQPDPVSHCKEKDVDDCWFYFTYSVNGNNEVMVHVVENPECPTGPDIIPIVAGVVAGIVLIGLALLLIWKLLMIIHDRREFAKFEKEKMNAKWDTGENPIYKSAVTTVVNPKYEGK
- assay_comment: Integrin Adhesion Assay: Protocol 5 (VCAM-coated plate, RPMI-8866 cells with stable LOF mutation of the ITGB7 gene)
- Type: cell-based
- experimental_context: RPMI-8866 cells with stable LOF mutation of the ITGB7 gene; read-out: Mean IC50 α4β1 KO^b
attribute_measured: IC50

compound="COc1ccc(CN2CCC(C)CC2)c(OC)c1-c1cccc2c(C[C@H](NC(=O)c3c(C)cccc3F)C(=O)O)cccc12 [Compound 625]" result="100 to 1000 nM"
compound="CN(C)Cc1ccc2c(-c3cccc4c(C[C@H](NC(=O)[C@]5(C)CC[C@@H](N6CCC(F)(F)CC6)CC5)C(=O)O)cccc34)nccc2c1 [Compound 585]" result="> 1000 nM"
compound="Cn1c(=O)c(-c2cccc3c(C[C@H](NC(=O)c4c(F)cc(N(CC(F)(F)F)C5COC5)cc4F)C(=O)O)cccc23)c(C(F)(F)F)c2ccccc21 [Compound 380]" result="> 1000 nM"
compound="COc1cccc(CCCN(C)C)c1-c1cccc2c(C[C@H](NC(=O)C3(C(F)(F)F)CCN(CC(F)(F)F)CC3)C(=O)O)cccc12 [Compound 567]" result="100 to 1000 nM"
compound="Cc1ccnc(C)c1-c1ccc(F)c(C(=O)N[C@@H](Cc2cccc3c(-c4c(C(F)(F)F)c5ccccc5n(C)c4=O)cccc23)C(=O)O)c1F [Compound 315]" result="> 1000 nM"

# input compound: COc1ccc(CN2CCC(F)C2)c(OC)c1-c1cccc2c(C[C@H](NC(=O)c3c(C)cccc3F)C(=O)O)cccc12 (stereo partly drawn) [Compound 629] ; wanted: its IC50
> 1000 nM

// lookup IC50 for Cn1c(=O)c(-c2cccc3c(C[C@H](NC(=O)C4(C(F)(F)F)CCN([C@H]5CCC(F)(F)C5)CC4)C(=O)O)cccc23)c(C(F)(F)F)c2ccccc21 (single isomer, unassigned) [Compound 495]
> 1000 nM

What IC50 value was documented for this compound, CCc1cccc(F)c1C(=O)N[C@@H](Cc1cccc2c(-c3c(OC)ccc(CN4CCCCC4)c3OC)cccc12)C(=O)O [Compound 649] ?
100 to 1000 nM

Please give the measured IC50 for this compound: COc1ccc(CN2CCCCC2)c(OC)c1-c1cccc2c(C[C@H](NC(=O)c3c(F)cccc3Br)C(=O)O)cccc12 [Compound 665]
100 to 1000 nM

Requested field: IC50. Item: Cn1c(C(F)(F)F)cc(C(F)(F)F)c(-c2cccc3c(C[C@H](NC(=O)[C@]4(C)CC[C@H](N5CCOC[C@@H]5C(F)(F)F)CC4)C(=O)O)cccc23)c1=O [Compound 408]
> 1000 nM

Fill in the blank: the reported IC50 of Cc1cccnc1-c1ccc(F)c(C(=O)N[C@@H](Cc2cccc3c(-c4c(C(F)(F)F)c5ccccc5n(C)c4=O)cccc23)C(=O)O)c1F [Compound 316] is ____.
> 1000 nM

Entry O=C(O)[C@H](Cc1cccc2c(-c3nccc4c(CN5CCCCC5)cccc34)cccc12)NC(=O)C1(C(F)(F)F)CCN([C@H]2COCC2(F)F)CC1 [Compound 641] : reported IC50 = ?
100 to 1000 nM

###

- test_system: α4β1 integrin (Homo sapiens (Human), UniProt P05556+P13612)
- assay_comment: Integrin Adhesion Assay: Protocol 5 (VCAM-coated plate, RPMI-8866 cells with stable LOF mutation of the ITGB7 gene)
- Assay type: cell-based
- experimental_context: Protocol 5; RPMI-8866 cells with LOF mutation of ITGB7, VCAM; read-out: Mean IC50 α4β1 KO
Listing of recorded IC50 by entry.

Known IC50 results, listed for orientation:
compound="COc1cc2ccccc2cc1-c1cccc2c(C[C@H](NC(=O)C3(C(F)(F)F)CCN(CC(F)(F)F)CC3)C(=O)O)cccc12 [Compound 775]" attribute_measured=IC50 result="> 1000 nM"
compound="COc1c(-c2cccc3c(C[C@H](NC(=O)C4(C(F)(F)F)CCN(CC(F)(F)F)CC4)C(=O)O)cccc23)c(=O)n(C)c2ccccc12 [Compound 739]" attribute_measured=IC50 result="> 1000 nM"
compound="COc1cccc(CN2CCCC(F)C2)c1-c1cccc2c(C[C@H](NC(=O)C3(C(F)(F)F)CCN(CC(F)(F)F)CC3)C(=O)O)cccc12 (stereo partly drawn) [Compound 828]" attribute_measured=IC50 result="> 1000 nM"
compound="COc1ccc(CN2CCCC(C)C2)c(OC)c1-c1cccc2c(C[C@H](NC(=O)C3(C(F)(F)F)CCN(CC(F)(F)F)CC3)C(=O)O)cccc12 (stereo partly drawn) [Compound 790]" attribute_measured=IC50 result="100 to 1000 nM"
compound="Cc1cc(CN2CCC(C)(C)CC2)cnc1-c1cccc2c(C[C@H](NC(=O)C3(C(F)(F)F)CCN(C4COC4)CC3)C(=O)O)cccc12 [Compound 945]" attribute_measured=IC50 result="> 1000 nM"

// next entry
Param item = COc1cc(CN2CCCCC2)cc(C(F)(F)F)c1-c1cccc2c(C[C@H](NC(=O)c3c(C)cccc3F)C(=O)O)cccc12 [Compound 1023] ; retrieve measured IC50.
100 to 1000 nM

###

Entries and their pIC50
- test_system: α4β7 integrin (Homo sapiens (Human), UniProt P13612+P26010)
- assay_comment: Integrin Adhesion Assay: Protocol 1 (MAdCAM-coated plate, RPMI-8866 cells, CellTiter GLO readout)
- Format: cell-based
pIC50: −log10 of the molar value.

molecule=Cn1ccc(C(F)(F)F)c(-c2cccc3c(C[C@H](NC(=O)c4c(F)cc(N5CCOC[C@H]5c5ccccc5)cc4F)C(=O)O)cccc23)c1=O result="6.00 to 7.00"
molecule=Cc1cncc(C)c1-c1ccc(F)c(C(=O)N[C@@H](Cc2cccc3c(-c4c(C(F)(F)F)c5ccccc5n(C)c4=O)cccc23)C(=O)O)c1F result="7.00 to 8.00"
molecule=Cc1cccc(F)c1C(=O)N[C@@H](Cc1cccc2c(-c3c(C(F)(F)F)c4ccccc4n(C)c3=O)cccc12)C(=O)O result="7.00 to 8.00"

Query (molecule): `Cn1c(=O)c(-c2cccc3c(C[C@H](NC(=O)c4c(F)cc(C5CCOCC5)cc4F)C(=O)O)cccc23)c(C(F)(F)F)c2ccccc21` ; field requested: pIC50
6.00 to 7.00

Requested read-out: pIC50. Entry: Cn1c(=O)c(-c2cccc3c(C[C@H](NC(=O)c4c(F)cc(C5CCNC5)cc4F)C(=O)O)cccc23)c(C(F)(F)F)c2ccccc21 (some centres unmarked)
6.00 to 7.00

State the recorded pIC50 for this entry: `CN(C)Cc1cccc2c(-c3cccc4c(C[C@H](NC(=O)c5c(F)cc(N6CCOC[C@@H]6C(F)(F)F)cc5CN5CCOCC5)C(=O)O)cccc34)nccc12`
> 8.00

For the molecule shown here, Cn1c(=O)c(-c2cccc3c(C[C@H](NC(=O)c4c(F)cc(N5CCOC(c6cccc(C(F)(F)F)c6)C5)cc4F)C(=O)O)cccc23)c(C(F)(F)F)c2ccccc21 (some centres unmarked) , give the reported pIC50.
< 6.00

Given the entry `CN(C)Cc1ccc2c(-c3cccc4c(C[C@H](NC(=O)c5c(F)cc(N6CCOC[C@@H]6C(F)(F)F)cc5CN5CCOCC5)C(=O)O)cccc34)nccc2c1` , report its measured pIC50.
> 8.00

Give the measured pIC50 of `Cn1c(=O)c(-c2cccc3c(C[C@H](NC(=O)c4c(F)cc(NC5(C(F)F)CC5)cc4F)C(=O)O)cccc23)c(C(F)(F)F)c2ccccc21` .
6.00 to 7.00

Fill in the blank: the reported pIC50 of Cn1c(C(F)(F)F)cc(C(F)(F)F)c(-c2cccc3c(C[C@H](NC(=O)[C@]4(C)CC[C@@H](N5CCC(F)(F)CC5)CC4)C(=O)O)cccc23)c1=O (single isomer, unassigned) is ____.
7.00 to 8.00

Would you kindly share the measured pIC50 for `COCCN(C)c1cc(F)c(C(=O)N[C@@H](Cc2cccc3c(-c4c(C(F)(F)F)c5ccccc5n(C)c4=O)cccc23)C(=O)O)c(F)c1` ?
6.00 to 7.00
